Value source: PubChem BioAssay (NCI)

Give log10 TGI for every item shown.
- Test system: KM12 colon
- Experimental details: NCI tumour cell line growth inhibition, 48 h
All values: log10 TGI [µM].

Some solved cases for reference:
INSERT INTO results (molecule, parameter_measured, value) VALUES
  ('Cn1cc(-c2ccc3c(c2)CCN3C(=O)Cc2cccc(C(F)(F)F)c2)c2c(N)ncnc21', 'log10 TGI', 1.19),
  ('COc1cc(/C=C/C2=NN(c3cccc(S(=O)(=O)O)c3)C3(C2)C(Cl)C(=O)N3c2nc3ccccc3s2)ccc1O (stereo unspecified)', 'log10 TGI', 1.61),
  ('COc1ccc(/C=C(\NC(=O)c2ccccc2)C(=O)NN(C)c2ccnc3cc(Cl)ccc23)cc1OC', 'log10 TGI', 1.54),
  ('Cn1c(=O)nc2n(-c3ccc(Cl)cc3Cl)c3ccccc3nc-2c1=O', 'log10 TGI', 1.20),
  ('CC(=O)OC1C2(CC3N4C(=O)C5(CO)SSC4(CC31O)C(=O)N5C)OC(C)C(C)(C)C2=O (stereo unspecified)', 'log10 TGI', 0.41),
  ('CCC1CN2CCc3cc(OC)c(OC)cc3C2CC1CC1c2cc(OC)c(OC)cc2CCN1C(=O)CNC(=O)OC(C)(C)C (stereo unspecified)', 'log10 TGI', 1.06),
  ('Oc1cc(Cl)ccc1Oc1ccc(Cl)cc1Cl', 'log10 TGI', 1.10),
  ('Cc1ccc2c(c1)ncn2-c1ncnc2c1CC(C)c1ccccc1N2C (stereo unspecified)', 'log10 TGI', 1.16),
  ('O=C(Nc1cc(Cl)c(Cl)cc1Cl)C(=O)C(C(=O)c1ccc(Cl)c(Cl)c1)C1OC(=O)c2ccccc21 (stereo unspecified)', 'log10 TGI', 1.53);

// next entry
[Q] Query log10 TGI for CCCCCCCCCCCC1N=C(N)NC(CCCO)=C1C(=O)OC (stereo unspecified)
[A] 0.45
